biological target: UniProt P12931; test: KINOMEscan competition binding; settings: compound 10.0 µM
Sequence (P12931 whole entry, looked up): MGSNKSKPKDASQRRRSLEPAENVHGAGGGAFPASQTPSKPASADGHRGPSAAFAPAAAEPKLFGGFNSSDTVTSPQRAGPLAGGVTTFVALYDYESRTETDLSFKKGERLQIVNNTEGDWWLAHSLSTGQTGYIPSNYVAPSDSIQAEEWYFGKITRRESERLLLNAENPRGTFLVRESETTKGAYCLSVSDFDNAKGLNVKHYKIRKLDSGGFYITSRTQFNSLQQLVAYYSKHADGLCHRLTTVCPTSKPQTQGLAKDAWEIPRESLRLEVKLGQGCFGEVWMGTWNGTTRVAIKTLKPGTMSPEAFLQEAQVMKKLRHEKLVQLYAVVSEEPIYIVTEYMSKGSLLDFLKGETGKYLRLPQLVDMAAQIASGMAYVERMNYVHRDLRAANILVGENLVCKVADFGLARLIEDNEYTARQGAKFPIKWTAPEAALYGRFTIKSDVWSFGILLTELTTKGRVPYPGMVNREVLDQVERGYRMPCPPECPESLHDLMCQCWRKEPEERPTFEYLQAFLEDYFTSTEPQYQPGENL
Readings of kinase still bound, per cent of control for the listed compounds
measured.attribute: kinase still bound, per cent of control

> print(dat)
                               smiles.entry                       measured.attribute  measured.value
1  O=c1[nH]c2ccccc2n1C1CCN(Cc2ccc(-c3nc4cc5[nH]cnc5cc4nc3-c3ccccc3)cc2)CC1  kinase still bound, per cent of control             81%
2  CCN(CCO)CCCOc1ccc2c(Nc3cc(CC(=O)Nc4cccc(F)c4)[nH]n3)ncnc2c1  kinase still bound, per cent of control             43%
3  CCCS(=O)(=O)Nc1ccc(F)c(C(=O)c2c[nH]c3ncc(Cl)cc23)c1F  kinase still bound, per cent of control            9.2%
4  CCc1nc(-c2cccc(C)c2)c(-c2ccnc(NC(=O)c3ccccc3)c2)s1  kinase still bound, per cent of control             14%
5  N#Cc1cc(-c2ccnc(Nc3ccc(-n4cnc(-c5cccnc5)n4)cc3)n2)cc(N2CCOCC2)c1  kinase still bound, per cent of control             38%

###

tested on: FGFR3 (human), P22607 [G697C]; assay: KINOMEscan competition binding; settings: compound 10.0 µM
Sequence (P22607 whole entry G697C, looked up): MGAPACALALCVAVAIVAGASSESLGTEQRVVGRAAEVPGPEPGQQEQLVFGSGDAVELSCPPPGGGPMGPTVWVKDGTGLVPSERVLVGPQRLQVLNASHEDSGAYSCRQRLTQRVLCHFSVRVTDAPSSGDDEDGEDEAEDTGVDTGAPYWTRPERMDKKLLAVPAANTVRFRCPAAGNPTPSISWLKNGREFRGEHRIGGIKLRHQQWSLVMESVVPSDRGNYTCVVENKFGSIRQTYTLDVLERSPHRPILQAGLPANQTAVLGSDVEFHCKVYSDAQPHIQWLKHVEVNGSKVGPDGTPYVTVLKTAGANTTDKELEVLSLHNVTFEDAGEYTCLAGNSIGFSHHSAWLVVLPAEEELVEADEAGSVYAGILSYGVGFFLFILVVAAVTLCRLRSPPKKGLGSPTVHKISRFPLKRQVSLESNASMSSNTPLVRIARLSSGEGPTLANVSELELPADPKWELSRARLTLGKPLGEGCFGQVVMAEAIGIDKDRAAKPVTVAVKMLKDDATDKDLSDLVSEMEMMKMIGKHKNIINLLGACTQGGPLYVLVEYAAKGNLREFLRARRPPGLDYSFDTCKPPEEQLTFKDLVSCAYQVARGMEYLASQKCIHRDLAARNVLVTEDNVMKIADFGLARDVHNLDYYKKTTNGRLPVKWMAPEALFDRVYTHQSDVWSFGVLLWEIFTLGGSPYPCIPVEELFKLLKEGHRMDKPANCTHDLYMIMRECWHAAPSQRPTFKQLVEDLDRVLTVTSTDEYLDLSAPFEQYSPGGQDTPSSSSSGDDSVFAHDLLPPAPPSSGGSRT
measured.attribute: kinase still bound, per cent of control (%)

> print(dat)
                               smiles.entry  measured.value
1  CN(C)C/C=C/C(=O)Nc1cccc(Nc2ncc3c(n2)N(C)c2ccccc2C(=O)N3C)c1              12
2  Cc1ccc(NC(=O)c2cccc(C(C)(C)C#N)c2)cc1Nc1ccc2ncn(C)c(=O)c2c1             100
3  Cc1cc([C@@H](C)Nc2ccccc2C(=O)O)c2nc(N3CCOCC3)cc(=O)n2c1             100
4  COc1cc2ncnc(-n3nc(-c4ccccn4)nc3N)c2cc1OC             100
5  COCC(=O)NC/C=C/c1ccc2ncnc(Nc3ccc(Oc4ccc(C)nc4)c(C)c3)c2c1              90
6  COc1cc(N2CCN(C)CC2)ccc1Nc1nc(N)c(C(=O)c2c(Cl)cccc2Cl)s1             100
7  COc1cc(C(=O)NC2CCN(C)CC2)ccc1Nc1ncc2c(n1)N(C1CCCC1)CCC(=O)N2C(C)C             100
8  Nc1ccc(-c2ccc3ncc4ccc(=O)n(-c5cccc(C(F)(F)F)c5)c4c3c2)cn1              89
9  CCCS(=O)(=O)Nc1ccc(F)c(C(=O)c2c[nH]c3ncc(Cl)cc23)c1F             100

###

target: BRSK2 (human) (UniProt Q8IWQ3); assay: KINOMEscan competition binding; details: compound 10.0 µM
Sequence (Q8IWQ3 whole entry, looked up): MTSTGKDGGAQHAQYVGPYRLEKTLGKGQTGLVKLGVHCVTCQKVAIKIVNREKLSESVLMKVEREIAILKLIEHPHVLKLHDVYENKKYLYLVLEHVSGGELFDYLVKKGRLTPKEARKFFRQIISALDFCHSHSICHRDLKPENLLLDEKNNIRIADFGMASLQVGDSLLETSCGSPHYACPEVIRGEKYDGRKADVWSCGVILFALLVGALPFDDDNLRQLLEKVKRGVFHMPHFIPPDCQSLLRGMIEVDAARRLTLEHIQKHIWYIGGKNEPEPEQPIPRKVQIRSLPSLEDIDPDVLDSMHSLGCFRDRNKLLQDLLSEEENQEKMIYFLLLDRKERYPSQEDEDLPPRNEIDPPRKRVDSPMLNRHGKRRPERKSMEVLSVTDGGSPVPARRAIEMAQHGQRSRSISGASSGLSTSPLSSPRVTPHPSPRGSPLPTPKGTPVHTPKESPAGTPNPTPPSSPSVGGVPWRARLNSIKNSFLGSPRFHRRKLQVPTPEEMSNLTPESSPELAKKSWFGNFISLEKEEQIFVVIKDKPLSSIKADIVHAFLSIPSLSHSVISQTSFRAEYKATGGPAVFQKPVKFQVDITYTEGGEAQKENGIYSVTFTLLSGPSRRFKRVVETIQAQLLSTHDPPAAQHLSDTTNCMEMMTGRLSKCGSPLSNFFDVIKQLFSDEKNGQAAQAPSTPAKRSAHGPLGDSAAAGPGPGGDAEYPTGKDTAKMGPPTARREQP
measured.attribute: kinase still bound, per cent of control (%)

> print(dat)
                                   molecule                   tested.target  measured.value
1  N#C/C(=C1/Nc2ccccc2S1)c1ccnc(NCCc2cccnc2)n1  BRSK2 (human) (UniProt Q8IWQ3)             100
2  COc1cc(C)c(Sc2cnc(NC(=O)c3ccc(CNC(C)C(C)C)cc3)s2)cc1C(=O)N1CCN(C(C)=O)CC1 (centres undefined)  BRSK2 (human) (UniProt Q8IWQ3)             100
3  O=c1[nH]c2ccccc2n1C1CCN(Cc2ccc(-c3nc4cc5[nH]cnc5cc4nc3-c3ccccc3)cc2)CC1  BRSK2 (human) (UniProt Q8IWQ3)              88
4  CCN(CCO)CCCOc1ccc2c(Nc3cc(CC(=O)Nc4cccc(F)c4)[nH]n3)ncnc2c1  BRSK2 (human) (UniProt Q8IWQ3)             100
5  CCc1nc(-c2cccc(C)c2)c(-c2ccnc(NC(=O)c3ccccc3)c2)s1  BRSK2 (human) (UniProt Q8IWQ3)              95
6  COc1ccc(N(C(=O)Oc2cc(C(=O)Nc3cccc(C(F)(F)F)c3)ccc2C)c2ccnc(Nc3ccc(N4CCN(C)CC4)cc3)n2)c(OC)c1  BRSK2 (human) (UniProt Q8IWQ3)             100
7  CCN1CCN(Cc2ccc(NC(=O)c3ccc(C)c(/C=C/c4cnc5[nH]ccc5c4OC)c3)cc2C(F)(F)F)CC1  BRSK2 (human) (UniProt Q8IWQ3)             100
8  N#Cc1cc(-c2ccnc(Nc3ccc(-n4cnc(-c5cccnc5)n4)cc3)n2)cc(N2CCOCC2)c1  BRSK2 (human) (UniProt Q8IWQ3)              98
9  CCCS(=O)(=O)Nc1ccc(F)c(C(=O)c2c[nH]c3ncc(Cl)cc23)c1F  BRSK2 (human) (UniProt Q8IWQ3)              86

###

biological target: CDK15 (human); assay: KINOMEscan competition binding; conditions: compound 10.0 µM
measured.attribute: kinase still bound, per cent of control (%)

> print(dat)
                                    compound  measured.value
 1  N#C/C(=C1/Nc2ccccc2S1)c1ccnc(NCCc2cccnc2)n1              86
 2  COc1cc(C)c(Sc2cnc(NC(=O)c3ccc(CNC(C)C(C)C)cc3)s2)cc1C(=O)N1CCN(C(C)=O)CC1 (configuration not stated)             100
 3  CCN(CCO)CCCOc1ccc2c(Nc3cc(CC(=O)Nc4cccc(F)c4)[nH]n3)ncnc2c1              88
 4  CCCS(=O)(=O)Nc1ccc(F)c(C(=O)c2c[nH]c3ncc(Cl)cc23)c1F             100
 5  CCOc1cc(N2CCC(O)CC2)ccc1Nc1ncc2c(n1)N(C)c1ccccc1C(=O)N2C             100
 6  COc1cc2c(Nc3ccc(NC(=O)c4ccccc4)cc3)ncnc2cc1OCCCN1CCOCC1              68
 7  C=CC(=O)Nc1ccc(C(=O)c2sc(Nc3ccc(N4CCN(C)CC4)cc3OC)nc2N)cc1              87
 8  CCN1CCN(Cc2ccc(NC(=O)c3ccc(C)c(/C=C/c4cnc5[nH]ccc5c4OC)c3)cc2C(F)(F)F)CC1              36
 9  O=c1[nH]c2ccccc2n1C1CCN(Cc2ccc(-c3nc4cc5[nH]cnc5cc4nc3-c3ccccc3)cc2)CC1              76
10  CC(=O)c1c(C)c2cnc(Nc3ccc(N4CCNCC4)cn3)nc2n(C2CCCC2)c1=O              39
11         COc1cc2ncnc(Nc3cccc(Cl)c3)c2cc1OC              75
12  COc1cc(N2CCC(C(N)=O)CC2)ccc1Nc1nc(N)c(Cl)c(Nc2ccccc2S(=O)(=O)C(C)C)n1             100
13  CC1=C(C(=O)Nc2cc3cn[nH]c3cc2F)C(c2ccc(C(F)(F)F)cc2)CC(=O)N1 (configuration not stated)              84
14  Cc1cn(-c2cc(C(=O)Nc3ccc(C)c(NC(=O)c4ccno4)c3)cc(C(F)(F)F)c2)cn1             100
15  N#Cc1cc(-c2ccnc(Nc3ccc(-n4cnc(-c5cccnc5)n4)cc3)n2)cc(N2CCOCC2)c1              55
16  CCc1nc(-c2cccc(C)c2)c(-c2ccnc(NC(=O)c3ccccc3)c2)s1              95
17  CNC(=O)Nc1ccc(-c2nc(N3CC4CCC(C3)O4)c3cnn(C4CCC5(CC4)OCCO5)c3n2)cc1             100

###

system: PIK3CA (human), P42336 [H1047L]; test: KINOMEscan competition binding; conditions: compound 10.0 µM
Sequence (P42336 whole entry H1047L, looked up): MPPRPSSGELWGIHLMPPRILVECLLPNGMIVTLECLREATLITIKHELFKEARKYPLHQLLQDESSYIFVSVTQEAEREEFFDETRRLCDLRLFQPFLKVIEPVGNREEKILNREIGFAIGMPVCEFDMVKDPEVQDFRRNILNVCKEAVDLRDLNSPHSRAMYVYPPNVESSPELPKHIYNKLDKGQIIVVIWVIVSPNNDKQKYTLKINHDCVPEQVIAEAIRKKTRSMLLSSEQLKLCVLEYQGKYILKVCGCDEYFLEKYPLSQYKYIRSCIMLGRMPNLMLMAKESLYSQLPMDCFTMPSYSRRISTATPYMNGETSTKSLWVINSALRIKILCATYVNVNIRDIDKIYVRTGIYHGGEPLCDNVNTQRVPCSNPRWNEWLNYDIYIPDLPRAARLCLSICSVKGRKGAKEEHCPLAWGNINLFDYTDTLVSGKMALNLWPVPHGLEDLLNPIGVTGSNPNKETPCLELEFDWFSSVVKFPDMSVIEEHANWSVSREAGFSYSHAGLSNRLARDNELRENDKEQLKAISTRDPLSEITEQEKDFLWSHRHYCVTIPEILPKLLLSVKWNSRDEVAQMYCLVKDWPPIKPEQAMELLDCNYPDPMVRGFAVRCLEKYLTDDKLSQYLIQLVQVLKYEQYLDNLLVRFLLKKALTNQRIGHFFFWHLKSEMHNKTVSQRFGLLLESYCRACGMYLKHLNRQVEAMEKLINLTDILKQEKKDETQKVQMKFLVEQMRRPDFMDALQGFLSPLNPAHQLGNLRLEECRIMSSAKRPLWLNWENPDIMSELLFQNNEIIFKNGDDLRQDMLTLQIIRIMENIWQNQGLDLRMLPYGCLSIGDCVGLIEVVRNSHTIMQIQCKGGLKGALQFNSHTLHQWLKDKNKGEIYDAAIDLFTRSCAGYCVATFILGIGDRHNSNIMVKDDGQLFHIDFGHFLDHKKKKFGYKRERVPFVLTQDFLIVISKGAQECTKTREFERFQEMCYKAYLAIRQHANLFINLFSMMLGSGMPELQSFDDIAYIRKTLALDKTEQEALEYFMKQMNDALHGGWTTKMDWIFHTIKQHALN
Readings of kinase still bound, per cent of control for the listed molecules
measured.attribute: kinase still bound, per cent of control (%)

> print(dat)
                               smiles.entry  unit  measured.value
1    N#Cc1c(NC(=O)c2cccc3ccccc23)sc2c1CCCC2     %              70
2  CCCS(=O)(=O)Nc1ccc(F)c(C(=O)c2c[nH]c3ncc(Cl)cc23)c1F     %             100
3  CCN1CCN(C(=O)Cc2ccc(Nc3ncc(F)c(Nc4ccc(C(=O)Nc5ccccc5Cl)cc4)n3)cc2)CC1     %             100
4  CCOc1cc2ncc(C#N)c(Nc3ccc(OCc4ccccn4)c(Cl)c3)c2cc1NC(=O)/C=C/CN(C)C     %             100
5  CN(C)C/C=C/C(=O)Nc1ccc(C(=O)Nc2cccc(Nc3nccc(-c4cccnc4)n3)c2)cc1     %             100
6  O=C(NOC[C@H](O)CO)c1ccc(F)c(F)c1Nc1ccc(I)cc1F     %              45
7  CCC(=O)N1CCN(c2ccc(-n3c(=O)ccc4cnc5ccc(-c6cnc7ccccc7c6)cc5c43)cc2C(F)(F)F)CC1     %             2.6
8  C=CC(=O)Nc1ccc(C(=O)c2sc(Nc3ccc(N4CCN(C)CC4)cc3OC)nc2N)cc1     %             100
9  CCN1CCN(Cc2ccc(NC(=O)c3ccc(C)c(/C=C/c4cnc5[nH]ccc5c4OC)c3)cc2C(F)(F)F)CC1     %             100
